READOUT: IC50 (µM)
// units = µM; emit number, no label

The reported IC50 value, Tyrosinase (Agaricus bisporus), for Cn1c2ccccc2c2cc(/C=C/C(=O)c3cccc(NC(=O)c4ccco4)c3)ccc21 reads 60.3

The reported IC50 value, Tyrosinase (Agaricus bisporus), for Cn1c2ccccc2c2cc(/C=C/C(=O)c3cccc(NC(=O)c4ccc(Cl)cc4)c3)ccc21 reads 15.1

* * *

Below are compounds with their IC50 as measured on Tyrosinase (Agaricus bisporus).
Sequence (O42713 whole entry): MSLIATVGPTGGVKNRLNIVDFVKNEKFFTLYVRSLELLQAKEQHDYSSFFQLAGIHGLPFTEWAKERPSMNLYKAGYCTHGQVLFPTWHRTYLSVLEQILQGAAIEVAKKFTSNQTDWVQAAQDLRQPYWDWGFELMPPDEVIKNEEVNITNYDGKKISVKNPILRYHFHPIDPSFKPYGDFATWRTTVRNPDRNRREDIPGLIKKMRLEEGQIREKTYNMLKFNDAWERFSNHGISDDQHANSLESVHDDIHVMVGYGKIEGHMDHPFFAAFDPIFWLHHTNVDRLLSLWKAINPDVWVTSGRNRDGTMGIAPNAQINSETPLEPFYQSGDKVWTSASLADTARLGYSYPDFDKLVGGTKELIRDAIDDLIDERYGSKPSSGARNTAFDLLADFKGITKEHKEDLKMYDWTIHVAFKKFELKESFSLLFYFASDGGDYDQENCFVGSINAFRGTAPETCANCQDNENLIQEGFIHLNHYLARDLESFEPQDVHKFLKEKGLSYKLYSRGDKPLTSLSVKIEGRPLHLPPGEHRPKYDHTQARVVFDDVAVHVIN
// units = µM; emit number, no label

Reported IC50 for Cn1c2ccccc2c2cc(/C=C/C(=O)c3cccc(NC(=O)c4cccc(C(F)(F)F)c4)c3)ccc21 was 65.2

Reported IC50 for Cn1c2ccccc2c2cc(/C=C/C(=O)c3cccc(NC(=O)c4cccs4)c3)ccc21 was 62.4

* * *

Kindly supply the reported IC50 values for the records listed here.

The reported IC50 value, Tyrosinase (Agaricus bisporus), for Cc1ccccc1C(=O)Nc1cccc(C(=O)/C=C/c2ccc3c(c2)c2ccccc2n3C)c1 reads > 100 µM

The reported IC50 value, Tyrosinase (Agaricus bisporus), for Cn1c2ccccc2c2cc(/C=C/C(=O)c3cccc(NC(=O)c4cccc(Br)c4)c3)ccc21 reads > 100 µM

The reported IC50 value, Tyrosinase (Agaricus bisporus), for Cn1c2ccccc2c2cc(/C=C/C(=O)c3cccc(NC(=O)c4ccc(C(C)(C)C)cc4)c3)ccc21 reads > 100 µM
